assay: Cytotoxicity against human multidrug-resistant KB-C2 cells after 48 hrs by MTT assay; type: functional, cell-based; settings: KB-C2, 48 h
# IC50 values compiled below
Readout kind: IC50 (µM)

- CC(=O)O[C@@H]1C[C@@H]2[C@@]3(C)CC[C@@H](OC(=O)CC(=O)NCc4ccccc4)C(C)(C)[C@@H]3CC[C@@]2(C)[C@]2(C)CC[C@H]([C@]3(C)CC[C@H](C(C)(C)O)O3)[C@@H]12: 33.2
- CC(=O)O[C@@H]1C[C@@H]2[C@@]3(C)CC[C@@H](OC(=O)CC(N)=O)C(C)(C)[C@@H]3CC[C@@]2(C)[C@]2(C)CC[C@H]([C@]3(C)CC[C@H](C(C)(C)O)O3)[C@@H]12: 43.7
- CCOC(=O)CC(=O)O[C@@H]1CC[C@]2(C)[C@H]3C[C@@H](OC(C)=O)[C@@H]4[C@@H]([C@]5(C)CC[C@H](C(C)(C)O)O5)CC[C@@]4(C)[C@]3(C)CC[C@H]2C1(C)C: 64.3

---

experiment: Cytotoxicity against human multidrug-resistant KB-C2 cells after 48 hrs by MTT assay; format: functional, cell-based; conditions: KB-C2, 48 h
Readout kind: IC50

- CC(=O)O[C@@H]1C[C@@H]2[C@@]3(C)CC[C@@H](OC(=O)CC(=O)N(C)C)C(C)(C)[C@@H]3CC[C@@]2(C)[C@]2(C)CC[C@H]([C@]3(C)CC[C@H](C(C)(C)O)O3)[C@@H]12: 28 µM
- CC(=O)O[C@@H]1C[C@@H]2[C@@]3(C)CC[C@@H](OC(=O)CC(=O)OC(C)(C)C)C(C)(C)[C@@H]3CC[C@@]2(C)[C@]2(C)CC[C@H]([C@]3(C)CC[C@H](C(C)(C)O)O3)[C@@H]12: > 100 µM
- COc1ccc(OC)c(NC(=O)CC(=O)O[C@@H]2CC[C@]3(C)[C@H]4C[C@@H](OC(C)=O)[C@@H]5[C@@H]([C@]6(C)CC[C@H](C(C)(C)OC(=O)C(=O)Nc7cc(OC)ccc7OC)O6)CC[C@@]5(C)[C@]4(C)CC[C@H]3C2(C)C)c1: > 100 µM
- CCCCCCCOC(=O)CC(=O)O[C@@H]1CC[C@]2(C)[C@H]3CC[C@@H]4[C@@H]([C@]5(C)CC[C@H](C(C)(C)O)O5)CC[C@@]4(C)[C@]3(C)CC[C@H]2C1(C)C: > 100 µM
- CC(=O)O[C@@H]1C[C@@H]2[C@@]3(C)CC[C@@H](OC(=O)CC(=O)OCC(C)C)C(C)(C)[C@@H]3CC[C@@]2(C)[C@]2(C)CC[C@H]([C@]3(C)CC[C@H](C(C)(C)O)O3)[C@@H]12: > 100 µM
- COC(=O)CC(=O)O[C@@H]1CC[C@]2(C)[C@H]3CC[C@@H]4[C@@H]([C@]5(C)CC[C@H](C(C)(C)O)O5)CC[C@@]4(C)[C@]3(C)CC[C@H]2C1(C)C: 56.6 µM
- CCCCCCCCOC(=O)CC(=O)O[C@@H]1CC[C@]2(C)[C@H]3C[C@@H](OC(C)=O)[C@@H]4[C@@H]([C@]5(C)CC[C@H](C(C)(C)O)O5)CC[C@@]4(C)[C@]3(C)CC[C@H]2C1(C)C: > 100 µM
- CC(=O)O[C@@H]1C[C@@H]2[C@@]3(C)CC[C@@H](OC(=O)CC(=O)NCc4ccccc4)C(C)(C)[C@@H]3CC[C@@]2(C)[C@]2(C)CC[C@H]([C@]3(C)CC[C@H](C(C)(C)OC(=O)C(=O)NCc4ccccc4)O3)[C@@H]12: > 100 µM
- CCCNC(=O)CC(=O)O[C@@H]1CC[C@]2(C)[C@H]3C[C@@H](OC(C)=O)[C@@H]4[C@@H]([C@]5(C)CC[C@H](C(C)(C)OC(=O)C(=O)NCCC)O5)CC[C@@]4(C)[C@]3(C)CC[C@H]2C1(C)C: 26.6 µM
- CC(=O)O[C@@H]1C[C@@H]2[C@@]3(C)CC[C@@H](OC(=O)CC(=O)Nc4ccccc4)C(C)(C)[C@@H]3CC[C@@]2(C)[C@]2(C)CC[C@H]([C@]3(C)CC[C@H](C(C)(C)O)O3)[C@@H]12: 26.2 µM
- CCCCCNC(=O)CC(=O)O[C@@H]1CC[C@]2(C)[C@H]3C[C@@H](OC(C)=O)[C@@H]4[C@@H]([C@]5(C)CC[C@H](C(C)(C)OC(=O)C(=O)NCCCCC)O5)CC[C@@]4(C)[C@]3(C)CC[C@H]2C1(C)C: > 100 µM
- CCCCCCCCCNC(=O)CC(=O)O[C@@H]1CC[C@]2(C)[C@H]3C[C@@H](OC(C)=O)[C@@H]4[C@@H]([C@]5(C)CC[C@H](C(C)(C)O)O5)CC[C@@]4(C)[C@]3(C)CC[C@H]2C1(C)C: > 100 µM
